Test: Inhibitory activity measured for Glyceraldehyde-3-phosphate dehydrogenase (GAPDH) in Leishmania. mexicana
pIC50: −log10 of the molar value.
observable: pIC50

Past entries and their recorded results:
>>> reported_result("OC[C@H]1O[C@@H](n2cnc3c(NC4CCCc5ccccc54)ncnc32)[C@H](O)[C@@H]1O (stereo not given in full)")
3.44
>>> reported_result("Cc1ccccc1CNc1ncnc2c1ncn2[C@@H]1O[C@H](CO)[C@@H](O)[C@H]1O")
3.15
>>> reported_result("COc1cc(C(=O)N[C@@H]2[C@H](O)[C@@H](CO)O[C@H]2n2cnc3c(N)ncnc32)ccc1O")
3.30

A = OC[C@H]1O[C@@H](n2cnc3c(NCc4cccc5ccccc45)ncnc32)[C@H](O)[C@@H]1O
B = COc1cccc(C(=O)N[C@@H]2[C@H](O)[C@@H](CO)O[C@H]2n2cnc3c(NCc4cc(C)ccc4C)ncnc32)c1
C = Nc1ncnc2c1ncn2[C@@H]1O[C@H](CO)[C@@H](O)[C@H]1O
D = OC[C@H]1O[C@@H](n2cnc3c(NC4CCCCCC4)ncnc32)[C@H](O)[C@@H]1O
Exercise: Arrange these 4 molecules in increasing order of pIC50. Order the labels as requested and give them as your answer.
Key: C, D, A, B

Source of measurements: ChEMBL document CHEMBL1131193
